- target: T1, human C5 R885H-mmh (human, UniProt P01031 19-1676)
- T1 construct: also called human C5 variant R885H
- assay notes: SPR, mAb captured via anti-hFc, 25C
reported endpoint: t1/2 (h)
Give just the numeric value; h need not be written.

Item: H4H12170P (antibody, human IgG4, V domains shown, Human IgG4 Fc with S108P hinge mutation (H4H)) VH: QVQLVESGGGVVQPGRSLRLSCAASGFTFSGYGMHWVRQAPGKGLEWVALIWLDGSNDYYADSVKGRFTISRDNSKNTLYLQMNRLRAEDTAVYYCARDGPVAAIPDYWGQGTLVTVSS VL: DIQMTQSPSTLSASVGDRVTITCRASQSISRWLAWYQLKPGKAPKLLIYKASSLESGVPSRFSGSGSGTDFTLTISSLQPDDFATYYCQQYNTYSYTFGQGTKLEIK | t1/2: 1.2
